Molecular target: human recombinant histamine H2 receptor (Homo sapiens, UniProt P25021)
Construct: expressed in transfected cells; host or cells: Chinese hamster ovary (CHO) K1 cells
Sequence (P25021 whole entry): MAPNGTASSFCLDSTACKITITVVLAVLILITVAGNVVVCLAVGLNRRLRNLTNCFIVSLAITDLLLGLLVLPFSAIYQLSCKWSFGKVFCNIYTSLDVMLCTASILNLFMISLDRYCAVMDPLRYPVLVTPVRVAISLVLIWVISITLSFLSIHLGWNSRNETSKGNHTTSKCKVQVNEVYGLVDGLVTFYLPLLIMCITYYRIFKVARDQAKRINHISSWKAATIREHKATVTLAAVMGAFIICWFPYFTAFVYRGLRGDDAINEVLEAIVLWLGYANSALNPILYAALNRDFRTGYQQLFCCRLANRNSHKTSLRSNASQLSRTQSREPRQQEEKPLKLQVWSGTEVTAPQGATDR
Assay: Histamine H2 radioligand binding ([125I]Aminopotentidine)
Details: read-out: Histamine Binding (1 μM) H2, percent inhibition of specific binding, 1 μM
Method: To evaluate in radioligand binding assays the activity of compounds of the invention, human recombinant histamine H2 receptor expressed in Chinese hamster ovary (CHO) K1 cells (Ruat, M., Proc. Natl. Acad. Sci. USA. 87(5):1658, 1990) in a 50 mM Phosphate buffer, pH 7.4 was used. […] Receptor proteins were filtered and washed, the filters were then counted to determine [^125I]Aminopotentidine specifically bound.
We begin with a simple list: items and their reported inhibition at 1 µM.
recorded endpoint: inhibition at 1 µM (%)

compound	unit label	observed result
CN1CCc2c(c3cc(Cl)ccc3n2/C=C(/c2ccc(F)cc2)C2CC2)C1	%	102
C/C(=C/n1c2c(c3cc(C)ccc31)CN(C)CC2)c1ccncc1	%	58
Cc1ccc2c(c1)c1c(n2CC(O)c2ccc(F)cc2)CCN(C)C1 (stereo not drawn)	%	65
CN1CCc2c(c3cc(Cl)ccc3n2CC(C)(O)c2ccncc2)C1 (stereo not drawn)	%	53
CN1CCc2c(c3cc(Cl)ccc3n2CC(O)c2cccnc2)C1 (stereo not drawn)	%	26
C/C(=C\n1c2c(c3cc(Cl)c(Cl)cc31)CN(C)CC2)c1ccncc1	%	90
Cc1ccc2c(c1)c1c(n2C#Cc2ccc(C)nc2)CCN(C)C1	%	88
C/C=C/C(=C\n1c2c(c3cc(Cl)ccc31)CN(C)CC2)c1ccc(F)cc1	%	101
Cc1ccc(C(C)(O)Cn2c3c(c4cc(Cl)ccc42)CN(C)CC3)cn1 (stereo not drawn)	%	48
